Reference source for all entries: patent US20250034275A1

Target: T1, human Trop-2 (on the surface of human cell lines) (human, UniProt P09758 27-323)
T1 sequence: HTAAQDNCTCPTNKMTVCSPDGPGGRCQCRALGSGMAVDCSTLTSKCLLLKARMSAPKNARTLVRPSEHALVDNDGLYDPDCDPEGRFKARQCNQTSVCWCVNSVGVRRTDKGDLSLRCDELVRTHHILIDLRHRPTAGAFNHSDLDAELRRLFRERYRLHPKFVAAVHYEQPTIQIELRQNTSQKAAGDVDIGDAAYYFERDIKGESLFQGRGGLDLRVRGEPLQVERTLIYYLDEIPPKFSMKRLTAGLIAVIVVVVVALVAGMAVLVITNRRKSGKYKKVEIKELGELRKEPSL
Experiment: cell-based or functional assay
Exercise: state measured ADCC, PBMC killing (LDH), HCC1806, EC50 for each of the binders provided.
Numbers only; they are read as nM.

## Input Can you share its ADCC, PBMC killing (LDH), HCC1806, EC50? I mean this binder: ch-Ab21 (antibody, human IgG1, kappa, V domains shown, Mouse VH/VL on human IgG1 and human kappa constant regions; also called chimeric antibody of Ab21) VH: EVQLKQSGPGLVQPSQSLSITCTVSGFSLRNYGVHWVRQSPGKGLEWLGVIWSSGTTDYNAAFISRLSITKDNSKSQVFFKMNSLQVDDTAIYNCARDGDYDYYTMDYWGQGTSVTVSS VL: AIVLTQSPASLAVSLGQRATISCRASKSVSTSAYSYIHWYQQKPGQPPKLLIYLTSNLESGVPARFSGSGSGTDFTLNIHPVEEEDAATYYCQHSRELPYTFGGGTKLEIKR
## Output 0.03

## Input # iterate: hz-Ab2-1.2 (antibody, human IgG1, kappa, V domains shown, Humanized antibody) VH: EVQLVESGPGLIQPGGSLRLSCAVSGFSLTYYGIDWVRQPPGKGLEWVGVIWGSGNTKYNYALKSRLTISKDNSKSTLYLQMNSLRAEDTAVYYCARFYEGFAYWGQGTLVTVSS VL: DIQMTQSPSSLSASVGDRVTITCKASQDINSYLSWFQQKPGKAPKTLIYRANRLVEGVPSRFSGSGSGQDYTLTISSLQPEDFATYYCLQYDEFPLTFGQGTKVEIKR
## Output 0.03

## Input Note, next up: hz-Ab2-1.1 (antibody, human IgG1, kappa, V domains shown, Humanized antibody) VH: EVQLVESGGGLIQPGGSLRLSCAVSGFSLTYYGIDWVRQPPGKGLEWVSVIWGSGNTKYNSALKSRLTISRDNSKSTLYLQMNSLRAEDTAVYYCARFYEGFAYWGQGTLVTVSS VL: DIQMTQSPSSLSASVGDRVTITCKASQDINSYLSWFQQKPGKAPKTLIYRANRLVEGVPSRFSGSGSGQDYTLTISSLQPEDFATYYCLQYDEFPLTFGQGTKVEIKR
## Output 0.46
